Every entry's value here was drawn from patent US20230062100A1.

Let's go through some recorded IC50 values for DGKα (Homo sapiens, UniProt P23743) together.
observed property: IC50 (nM)

# compound, IC50, nM
rows = [
    ("Cn1c(=O)c(C#N)c(N2CCC(Oc3cccc(C(F)(F)F)c3)CC2)c2ccccc21 [Example 15]", 14),
    ("CN1CCCN(c2ccc(OC3CCN(c4c(C#N)c(=O)n(C)c5ccccc45)CC3)cc2)C1=O [Example 21]", 119),
    ("Cn1c(=O)c(C#N)c(N2CCC(Oc3ccc(N4CCOCC4)cc3)CC2)c2ccccc21 [Example 20]", 81),
    ("Cn1c(=O)c(C#N)c(N2CCC(Sc3ccccc3)CC2)c2cc(C3CC3)ccc21 [Example 147]", 32),
    ("Cn1c(=O)c(C#N)c(N2CCC(Oc3ccc(OC(F)(F)F)cc3)CC2)c2cccc(Cl)c21 [Example 131]", 18),
]

1. Cn1c(=O)c(C#N)c(N2CCC(Sc3ccccc3)CC2)c2cc(C#N)ccc21 [Example 144]
2. COc1ccc2c(N3CCC(Oc4ccccc4)CC3)c(C#N)c(=O)n(C)c2c1 [Example 89]
3. COc1ccc(OC2CCN(c3c(C#N)c(=O)n(C)c4ccccc34)CC2)cc1 [Example 46]
Falling order of IC50, please. Response format: the labels, sorted as the prompt asks. 3, 2, 1

1. Cn1c(=O)c(C#N)c(N2CCC(OCc3cccc(F)c3)CC2)c2ccccc21 [Example 113]
2. Cn1c(=O)c(C(N)=O)c(N2CCC(OCc3cccc(F)c3)CC2)c2ccccc21 [Example 128]
3. Cn1c(=O)c(C#N)c(N2CCC(COc3ccccc3)CC2)c2ccccc21 [Example 118]
Arrange the 3 entries by IC50 so the values rise. Rank the items, then write their labels in that order. 1, 2, 3

I. Cn1c(=O)c(C#N)c(N2CCC(Oc3ccccc3F)CC2)c2ccccc21 [Example 33]
II. Cn1c(=O)c(C#N)c(N2CCC(COc3ccccc3Cl)CC2)c2ccccc21 [Example 120]
III. Cc1cccc(OC2CCN(c3c(C#N)c(=O)n(C)c4ccccc34)CC2)c1 [Example 3]
# rank by IC50, ascending (min first) Form entry: labels listed in requested order. III, I, II
(III: 6.2 nM, I: 13 nM, II: 51 nM)

I. Cc1cccc(COC2CCN(c3c(C#N)c(=O)n(C)c4ccccc34)CC2)c1 [Example 108]
II. CCCCOc1ccc2c(N3CCC(Sc4ccccc4)CC3)c(C#N)c(=O)n(C)c2c1 [Example 69]
III. Cn1c(=O)c(C#N)c(N2CCC(Sc3ccccc3)CC2)c2ccc(Br)cc21 [Example 55]
IV. Cc1ccc2c(N3CCC(Oc4ccc(OC(F)(F)F)cc4)CC3)c(C#N)c(=O)n(C)c2c1 [Example 67]
V. Cn1c(=O)c(C#N)c(N2CCC(Oc3cccc4ocnc34)CC2)c2ccccc21 [Example 27]
Put the compounds in ascending order of IC50. To answer, arrange all of the labels according to the requested order. III, IV, I, V, II
(III: 4.4 nM, IV: 6.4 nM, I: 10 nM, V: 318 nM, II: 507 nM)

A. Cc1cccc(OC2CCN(c3c(C#N)c(=O)n(C)c4ccc(C)cc34)CC2)c1 [Example 149]
B. Cn1c(=O)c(C#N)c(N2CCC(Oc3ccc(OC(F)(F)F)cc3)CC2)c2cc(Br)ccc21 [Example 139]
// compare measured IC50 between A and B ; output the lower one Response format: the label of the selected entry. B
(B: 2.5 nM, A: 7.7 nM)

1. COc1cc(C)ccc1OC1CCN(c2c(C#N)c(=O)n(C)c3ccc(C)cc23)CC1 [Example 153]
2. Cn1c(=O)c(C#N)c(N2CCC(Oc3ccc(OC(F)(F)F)cc3)CC2)c2cccc(C#N)c21 [Example 132]
Between 1 and 2 , which one shows the larger IC50 value? Answer with the label corresponding to your selection. 2

A. Cn1c(=O)c(C#N)c(N2CCC(Oc3ccc(-n4cncn4)cc3)CC2)c2ccccc21 [Example 17]
B. Cn1c(=O)c(C#N)c(N2CCC(Oc3ccc(OC(F)(F)F)cc3)CC2)c2cccc(F)c21 [Example 129]
Returns: the label, A or B , whose recorded IC50 is the lower number. In your reply, give the label of the chosen option. B
(B: 29 nM, A: 45 nM)

a. Cn1c(=O)c(C#N)c(N2CCC(Oc3ccc(C(F)(F)F)cc3)CC2)c2ccc(C3CC3)cc21 [Example 87]
b. Cn1c(=O)c(C#N)c(N2CCC(COc3ccc(Cl)cc3)CC2)c2ccccc21 [Example 116]
c. Cn1c(=O)c(C#N)c(N2CCC(Oc3ccc(OC(F)(F)F)cc3)CC2)c2cc(Cl)ccc21 [Example 157]
Sort low-to-high on IC50, please. In your reply, arrange the labels in the requested order. b, a, c
